# test.method.notes: inhibition of 3D7 malaria parasite growth – strain 3D7 (AID 2306);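 further: 0% = DMSO wells and 100% = chloroquine plus artemisinin control wells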
# run.parameters: P. falciparum 3D7 erythrocytic growth, LDH absorbance, 72 h; at 2 µM; stronger effect = higher value
readout: growth inhibition (%)
Quick note: give the figure in %, leave out the unit.

{"columns": ["molecule", "growth inhibition, %"],
 "data": [
  ["CCN(CC)CCN1C(=O)C(O)(c2ccccc2Cl)c2c1cc(C(N)=O)cc2C(F)(F)F (stereo not given)", 101]
]}

(Q) I have this molecule here, O=C(/C=C/c1ccccc1Cl)NC1CCC(CN2[C@@H]3CC[C@H]2CC(c2c[nH]c4ccccc24)C3)CC1 (stereo not given in full) , and I need its recorded growth inhibition.
(A) 102

(Q) Would you mind telling me what growth inhibition value was observed for COc1ccc(C2CNCc3c2cc(OC)c(OC)c3Cl)cc1 (stereo not given) ?
(A) 98

(Q) Reported growth inhibition for CC(=O)Nc1ccc(OCCN(CC(C)C)c2ccc(C#N)c(C(F)(F)F)c2)c(Cl)c1 : what is it?
(A) 94

(Q) Item under review: O=P(O)(O)Oc1c(Br)cc(Br)cc1-c1cc(Br)cc(Br)c1O . Reported growth inhibition?
(A) 97

* * *

# test.method.notes: Cy5 fluorescence quenching or enhancement artefacts, artefact control for HCV NS3 helicase inhibitor project, biochemical, LOPAC1280 (AID 687037)
# run.parameters: Cy5-DNA-NS3h complex fluorescence interference counterscreen
readout: fluorescence ratio (interference)
Just the number, please.

# annotated cases, reported fluorescence ratio (interference) shown
{"columns": ["molecule", "measured.number"],
 "data": [
  ["c1ccc2c(N3CCNCC3)cccc2c1", 1],
  ["CCCCCN(C)CCC(O)(P(=O)(O)O)P(=O)(O)O", 1],
  ["C[C@H](N)CN1CCc2ccc(Br)cc21", 1],
  ["COc1ccc(CNC(=O)/C=C/c2ccc3[nH]cc(CCN(C)C)c3c2)cc1", 1],
  ["C[N+]1(C)CCN(c2ccccc2)CC1", 1]
]}

(Q) What value of fluorescence ratio (interference) has been reported for the following molecule? Cc1sc2ccccc2c1CC1=NCCN1
(A) 0.9

(Q) // fluorescence ratio (interference) lookup, key: COC[C@H]1OC(=O)c2coc3c2[C@@]1(C)C1=C(C3=O)C2CCC(=O)[C@@]2(C)C[C@H]1OC(C)=O (stereo not given in full)
(A) 1

(Q) Name the reported fluorescence ratio (interference) value associated with the molecule CC(O)(CS(=O)(=O)c1ccc(F)cc1)C(=O)Nc1ccc(C#N)c(C(F)(F)F)c1 (stereo not given)
(A) 1

(Q) So what does the record say about fluorescence ratio (interference) for Fc1ccc(C(OCCN2CCN(CCCc3ccccc3)CC2)c2ccc(F)cc2)cc1 ?
(A) 1

(Q) // fluorescence ratio (interference) lookup, key: CCCN1CCc2cc(O)cc3c2[C@H]1Cc1ccc(O)c(O)c1-3
(A) 1

(Q) Which fluorescence ratio (interference) is listed for C[C@]12CCC3C(CC[C@H]4C[C@H](O)CC[C@]34C)C1CC[C@@H]2C(=O)CO (stereo not given in full) ?
(A) 1

* * *

# test.method.notes: HD-MB03 medulloblastoma cell growth inhibition, synergistic combos for chromothripsis tumors, BGB or cisplatin IC20 combos (AID 1671455);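 further: 0% = vehicle DMSO and 100% = high DMSO as cytotoxic control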
# run.parameters: HD-MB03 medulloblastoma cells, measured here: combo with BGB at IC20, at 0.5 µM, stronger effect = higher value
readout: inhibition (%)
Respond with the bare value in %.

{"columns": ["molecule", "units", "inhibition"],
 "data": [
  ["O=c1[nH]c(=O)n(C2OC(CO)C(O)C2O)cc1F (stereo not drawn)", "%", 71.1],
  ["O=C1CCC[C@@H]2[C@H]3CCCN4CCC[C@@H](CN12)[C@@H]34", "%", 3.91],
  ["Cn1c(CCCC(=O)O)nc2cc(N(CCCl)CCCl)ccc21", "%", -11.1],
  ["O=P(O)(NCCCl)NCCCl", "%", -26.7],
  ["NC(Cc1ccc(N(CCCl)CCCl)cc1)C(=O)O (stereo not drawn)", "%", 19.3],
  ["CN(C)NC(=O)CCC(=O)O", "%", -16.7],
  ["O=C(O)CCCc1ccc(N(CCCl)CCCl)cc1", "%", -9.02]
]}

Here is another molecule to look at.
(Q) For Cc1c2ccncc2c(C)c2c1[nH]c1ccccc12 , what is its reported inhibition?
(A) 32.4
